# Test system: MDA-N
# Protocol Text: NCI tumour cell line growth inhibition, 48 h
Outcome Measure: TGI

CCN1CCC(O)(c2ccc(Oc3ccccc3)cc2)C(C(=O)c2ccc(Oc3ccccc3)cc2)C1 (centres undefined)
26.7 µM
COc1ccc([C@H]2CC(=O)C[C@H](c3ccc(OC)cc3)C23C(=O)c2ccccc2C3=O)cc1
5.35 µM
CC(C)Cn1cnc2c(SCc3ccc(Cl)cc3Cl)nc(N)nc21
> 100 µM
COC(=O)C(Cc1ccccc1)NP(=O)(O)OCC1OC(n2cc(Br)c(=O)[nH]c2=O)CC1O (centres undefined)
> 100 µM

Record COC(=O)C1=C(C)C(=O)[C@]23C(CCCC[C@H]12)C(=O)[C@H](C(=O)OC)C3C (some centres undefined) . Reported TGI: > 100 µM

Record C=C(C)[C@@H]1CC[C@]2(C)CC[C@]3(C)[C@H](CC[C@@H]4[C@@]5(C)CC[C@H](O)C(C)(C)[C@@H]5CC[C@]43C)[C@@H]12 . Reported TGI: > 100 µM

Record Cc1c(C)c(C)c(-n2c(=O)n(C)c(=O)n2-n2c(=O)n(C)c(=O)n2-c2c(C)c(C)c(C)c(C)c2C)c(C)c1C . Reported TGI: > 100 µM

Record N#CC1(C#N)C2(c3ccccc3)OC(c3ccccc3)(c3cc4ccccc4cc32)C1(C#N)C#N . Reported TGI: 34.4 µM

Record C=CCOc1cc(NC(=S)c2ccoc2C)ccc1OC . Reported TGI: > 100 µM
